test system: ADT-perturbed human prostate cancer vasculature; assay: In vivo selection of Ph.D.-12 phage display library against ADT-perturbed human prostate cancer xenografts, NextGen sequencing of recovered phage; settings: third round of in vivo selection, data of the two tumor specimens combined
observable: # clones recovered
Note: the reply should be a number with no unit written.

In the examples that follow, each entry is paired with its recorded # clones recovered.
- query sequence: "TMGFTAPRFPAL"
  # clones recovered: 2
- query sequence: "TMGFTAPRFPSV"
  # clones recovered: 2
- query sequence: "TMGFTAPRFPHR"
  # clones recovered: 4
- query sequence: "TMGLTHSRVRIE"
  # clones recovered: 2
- query sequence: "TMGFTAPRFPLL"
  # clones recovered: 6

Q: Give the measured # clones recovered of TLQRTHFPPVVF .
Ans: 19

Q: Which measured # clones recovered value corresponds to TLQRTHFRPAF ?
Ans: 6

Q: I have this sequence here, TLQRTHFPSGVF , and I need its recorded # clones recovered.
Ans: 32

Q: Item under review: TMGFTAPRFPHQ . Reported # clones recovered?
Ans: 8

Q: Return reported # clones recovered; argument: TLQRTHFRPAFR
Ans: 21

Q: What # clones recovered value was documented for this sequence, TMGFTAPRRGAV ?
Ans: 2

Q: # get_value(readout='# clones recovered', item= KPPQNTSAPYLP )
Ans: 659

Q: Record request: # clones recovered value, item SPHWQPNAILL
Ans: 2

Q: Fill blank: measured # clones recovered of the sequence TLQRTHFPPARR is ____.
Ans: 3

Q: What value of # clones recovered has been reported for the following sequence? TLQRTHFPRLFG
Ans: 3

Q: Data request, read-out # clones recovered, for TLQRTHFPPGVF
Ans: 5

Q: Reported # clones recovered, sequence TLQRIHFPPAFS : ____
Ans: 5

Q: Value lookup for # clones recovered; key = TLQRTHFPPA
Ans: 30

Q: Report # clones recovered for TLQRTHFPSG please.
Ans: 47

Q: Entry TLQRTHFPPAFP : reported # clones recovered = ?
Ans: 3
